Values from ChEMBL document CHEMBL1641538

# system: Peroxisome proliferator-activated receptor alpha (Homo sapiens, UniProt Q07869)
# Sequence (Q07869 whole entry, the tested form may be a part): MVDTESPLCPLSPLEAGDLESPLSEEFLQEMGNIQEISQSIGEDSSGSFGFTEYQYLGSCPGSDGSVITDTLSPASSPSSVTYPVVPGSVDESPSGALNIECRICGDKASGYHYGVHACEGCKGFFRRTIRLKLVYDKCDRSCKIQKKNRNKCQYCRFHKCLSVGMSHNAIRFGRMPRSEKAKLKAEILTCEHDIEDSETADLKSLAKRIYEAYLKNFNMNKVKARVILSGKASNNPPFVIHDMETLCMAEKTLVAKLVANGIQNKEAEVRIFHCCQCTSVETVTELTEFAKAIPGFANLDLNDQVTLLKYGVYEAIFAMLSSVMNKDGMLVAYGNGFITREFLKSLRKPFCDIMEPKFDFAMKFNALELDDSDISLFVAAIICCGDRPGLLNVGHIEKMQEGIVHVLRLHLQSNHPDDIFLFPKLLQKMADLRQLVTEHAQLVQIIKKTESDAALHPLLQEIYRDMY
# experimental protocol: Transactivation of Gal4-fused human PPARalpha DNA binding domain expressed in african green monkey CV1 cells by luciferase reporter gene assay
# Format: cell-based, CV-1
outcome measure: EC50

Query (compound): Cc1cc2c(CCc3nc(-c4ccc(Cl)cc4Cl)oc3C(C)C)noc2cc1OCC(=O)O ; field requested: EC50 > 10 µM

* * *

# system: Peroxisome proliferator-activated receptor alpha (Homo sapiens, UniProt Q07869)
# experimental protocol: Transactivation of full length human PPARalpha expressed in african green monkey CV1 cells by luciferase reporter gene assay
# Type: cell-based, CV-1
outcome measure: EC50

Query (molecule): Cc1cc2c(CCc3nc(-c4ccc(Cl)cc4Cl)oc3C(C)C)noc2cc1OCC(=O)O ; field requested: EC50 > 10 µM
